The following compounds each carry a recorded pIC50 for Angiopoietin-1 receptor (Homo sapiens, UniProt Q02763).
pIC50: −log10 of the molar value.
VALUE_TYPE: pIC50

# COMPOUND, TARGET_OR_TEST_SYSTEM, pIC50
data = [
    ("COC1=CC(=O)C=C(/C=C2\\CCCC3CCCCC23)C1=O (configuration not stated)", "Angiopoietin-1 receptor (Homo sapiens, UniProt Q02763)", 4.85),
    ("COC1=CC(=O)C=C(Cc2ccccc2)C1=O", "Angiopoietin-1 receptor (Homo sapiens, UniProt Q02763)", 4.74),
]

====

The following molecules each carry a recorded pIC50 for Insulin-like growth factor 1 receptor (Homo sapiens).
pIC50: −log10 of the molar value.
VALUE_TYPE: pIC50

a. CC(O)C(/N=C1C=C(O)/C(=N\C(C(=O)O)C(C)O)C=C/1O)C(=O)O (stereo not drawn)
b. CC(O)C(/N=C1\C(O)=CC(=O)C(O)=C1CC1CCCC2CCCCC21)C(=O)O (stereo not drawn)
# min-compare on pIC50 between a and b Answer by stating the label of the chosen item. a
